System: NOMO1
experiment: cell viability relative to DMSO control; higher = less cytotoxic
conditions.used: RPMI 5 mM glucose + 10% dialyzed FBS; 48 h; 0.0211 µM
measured.metric: cell viability (%)
Answers are plain numbers, in %.

# example entries with known answers
smiles_code=CC(C)C1=C(O)C=C(O)C(=C1)C/2=N/NC(=O)N2C3=CC4=C(C=C3)[N](C)C=C4 unit_of_measurement=% number=118
smiles_code=C\C1=C(\C=C(C#N)/C(=O)N1)C2=C[N]3C=CN=C3C=C2 unit_of_measurement=% number=83.4
smiles_code=CC(C)CC(=O)N[C@H](C(=O)N[C@H](C(=O)N[C@@H](CC(C)C)[C@@H](O)CC(=O)N[C@@H](C)C(=O)N[C@@H](CC(C)C)[C@@H](O)CC(=O)O)C(C)C)C(C)C unit_of_measurement=% number=115

## Input Which measured cell viability belongs to `O=C1c2c(O)ccc(O)c2C(=O)c2c(NCCNCCO)ccc(NCCNCCO)c21` , tested on NOMO1?
## Output 113

* * *

Hi there, I'd appreciate the recorded cell viability for every entry that follows.
System: P12-Ichikawa
experiment: cell viability relative to DMSO control; higher = less cytotoxic
conditions.used: RPMI 5 mM glucose + 10% dialyzed FBS; 48 h; 0.000781 µM

Worked set:
compound=CC(C)NC[C@@H](C(=O)N1CCN(c2ncnc3c2[C@H](C)C[C@H]3O)CC1)c1ccc(Cl)cc1 measured_metric="cell viability" result=112%
compound=O=C(c1ccc(Nc2nccc(-c3cc4ccccc4s3)n2)cc1)N1CCC(N2CCCC2)CC1 measured_metric="cell viability" result=113%
compound="COc1ccc(C2CNC(=O)C2)cc1OC1CCCC1 (configuration not stated)" measured_metric="cell viability" result=84.8%
compound=COc1cc2c(cc1OC)CC(=O)N(CCCN(C)C[C@H]1Cc3cc(OC)c(OC)cc31)CC2.Cl measured_metric="cell viability" result=104%
compound=COc1cc2ncnc(Nc3cc(Br)c(O)c(Br)c3)c2cc1OC measured_metric="cell viability" result=95.8%

Provide the reported cell viability of each entry below, same order.
1. COc1cc2ncnc(Nc3ccc(F)c(Cl)c3)c2cc1NC(=O)/C=C/CN1CCCCC1
2. Cn1c(CNc2ccc(C(=N)N)cc2)nc2cc(C(=O)N(CCC(=O)O)c3ccccn3)ccc21
3. C[C@@]12C[C@@]3(O)O[C@@H](O1)[C@]1(COC(=O)c4ccccc4)[C@H]3C[C@@]12O[C@@H]1O[C@H](CO)[C@@H](O)[C@H](O)[C@H]1O
4. CCOC(=O)C/1=C(O)/C(=O)N(CC2=CC=CC=C2)C1
5. O=C(O[C@H]1C[C@H]2CC[C@@H](C1)[N+]21CCCC1)C(O)(c1ccccc1)c1ccccc1.[Cl-]
6. CC(C)=CC[C@@H](O)C/1=C/C(=O)C2=C(O)C=CC(=C2C1=O)O
7. O=C(O)c1ccc2c(c1)nc(Nc1cccc(Cl)c1)c1ccncc12

## Output
1. 101%
2. 97.3%
3. 89.8%
4. 107%
5. 99.5%
6. 92.7%
7. 99.4%

* * *

Test system: SEM cells
experiment: cell viability relative to DMSO control; higher = less cytotoxic
conditions.used: RPMI 5 mM glucose + 10% FBS; 48 h; 46.1 µM
measured.metric: cell viability (%)
Numbers only, in %.

The cases that follow already have their cell viability on record.
compound=O=C1c2c(O)ccc(O)c2C(=O)c2c(NCCNCCO)ccc(NCCNCCO)c21 unit_of_measurement=% number=3.79
compound=CN(C)[C@H]\1[C@@H]2C[C@H]3C(=C(O)\[C@]2(O)C(=O)\C(=C1O)C(N)=O)/C(=O)C4=C(O)C=CC=C4[C@@]3(C)O unit_of_measurement=% number=93
compound=CC(C)=CC[C@@H](O)C/1=C/C(=O)C2=C(O)C=CC(=C2C1=O)O unit_of_measurement=% number=47.1
compound=CC(C)NC[C@@H](C(=O)N1CCN(c2ncnc3c2[C@H](C)C[C@H]3O)CC1)c1ccc(Cl)cc1 unit_of_measurement=% number=1.73
compound="O=C(O)C1=NC(C(=O)O)CC(/C=C/N2c3cc(O)c(OC4OC(CO)C(O)C(O)C4O)cc3CC2C(=O)O)=C1 (stereo not given)" unit_of_measurement=% number=97.2
compound=COC(=O)[C@@H]1[C@H]2C[C@H]3c4[nH]c5ccccc5c4CCN3C[C@@H]2CC[C@@H]1O unit_of_measurement=% number=125
compound=CC(C)C(=O)Nc1ccc([N+](=O)[O-])c(C(F)(F)F)c1 unit_of_measurement=% number=121
compound="OC1CCC(Nc2ncc3nc(Nc4c(F)cc(F)cc4F)n([C@@H]4CCOC4)c3n2)CC1 (stereo not given in full)" unit_of_measurement=% number=99.4
compound=N[C@H](CSC(c1ccccc1)(c1ccccc1)c1ccccc1)C(=O)O unit_of_measurement=% number=2.79
compound=NC\1=N\C(=O)N(\C=C1)[C@@H]2O[C@H](CO)[C@@H](O)[C@H]2O unit_of_measurement=% number=64.7

Hey, quick one: what's cell viability for each of these?
1. CC(N)C12CC3CC(CC(C3)C1)C2 (stereo not given)
2. COc1ccc(-c2nc(N3CCOCC3)c3sc(CN(C)c4ncc(C(=O)NO)cn4)cc3n2)cn1
3. C/C=C(/C)C(=O)O[C@H]1C(C)=C[C@]23C(=O)[C@@H](C=C(CO)[C@@H](O)[C@]12O)[C@H]1[C@@H](C[C@H]3C)C1(C)C
4. O=C(Nc1ccc(F)c(C(F)(F)F)c1)Nc1nnc(-c2ccncc2)s1

## Output
1: 131; 2: 3.98; 3: 43.8; 4: 92.8

Would you be so kind as to report cell viability for each listed record?
1. CNC1CCC(N(Cc2cccc(-c3ccncc3)c2)C(=O)c2sc3c(F)ccc(F)c3c2Cl)CC1 (stereo not given)
2. CNc1nccc(-c2cccnc2Oc2cc(C(=O)Nc3cccc(C(F)(F)F)c3)ccc2C)n1
3. O=C(Nc1cc2cc[nH]c2cn1)c1ccccc1
4. COc1ccc(C(C)=O)c(O)c1

## Output
1. 73.3
2. 92.9
3. 1
4. 121

* * *

Please respond with reported cell viability for every item in the list.
Test system: NOMO1
experiment: cell viability relative to DMSO control; higher = less cytotoxic
conditions.used: RPMI 5 mM glucose + 10% FBS; 48 h; 0.00234 µM
Numbers only, in %.

List cell viability for every entry below, keeping the order given.
1. O=C1c2c(O)ccc(O)c2C(=O)c2c(NCCNCCO)ccc(NCCNCCO)c21
2. Cc1cn(-c2cc(NC(=O)c3ccc(C)c(Nc4nccc(-c5cccnc5)n4)c3)cc(C(F)(F)F)c2)cn1
3. CN1CCN(c2ccc([N+](=O)[O-])c3no[n+]([O-])c23)CC1
4. N[C@H](CSC(c1ccccc1)(c1ccccc1)c1ccccc1)C(=O)O
5. Cc1cn([C@@H]2O[C@H](CO)[C@@H](O)[C@@H]2F)c(=O)[nH]c1=O
6. Cc1cc2c(F)c(Oc3ncnn4cc(OC[C@@H](C)O)c(C)c34)ccc2[nH]1
7. CNC1CCC(N(Cc2cccc(-c3ccncc3)c2)C(=O)c2sc3c(F)ccc(F)c3c2Cl)CC1 (centres undefined)
8. S=P(N1CC1)(N1CC1)N1CC1

## Output
1. 102
2. 111
3. 99.6
4. 113
5. 108
6. 103
7. 108
8. 102

Provide each entry's cell viability from the list below.
1. OC1CCC(Nc2ncc3nc(Nc4c(F)cc(F)cc4F)n([C@@H]4CCOC4)c3n2)CC1 (some centres undefined)
2. C\C1=C(\C=C(C#N)/C(=O)N1)C2=C[N]3C=CN=C3C=C2
3. COc1cc2ncnc(Nc3ccc(F)c(Cl)c3)c2cc1NC(=O)/C=C/CN1CCCCC1
4. CC(C)C(=O)Oc1ccc(CO)cc1[C@H](CCN(C(C)C)C(C)C)c1ccccc1
5. O=C(O)c1ccc2c(c1)nc(Nc1cccc(Cl)c1)c1ccncc12
6. COc1ccc(-c2ccc3c(N4CCOC[C@@H]4C)nc(N4CCOC[C@@H]4C)nc3n2)cc1CO

## Output
1: 113; 2: 82.2; 3: 93.7; 4: 78.8; 5: 93.5; 6: 75.7

* * *

Tested on: NOMO1
experiment: cell viability relative to DMSO control; higher = less cytotoxic
conditions.used: RPMI 5 mM glucose + 10% FBS; 48 h; 0.19 µM
measured.metric: cell viability (%)
Numbers only, in %.

A selection of reference data follows.
compound=N[C@H](CSC(c1ccccc1)(c1ccccc1)c1ccccc1)C(=O)O measured_metric="cell viability" number=118
compound="OC[C@H]1OCC(O1)[N@@]2C=CC(N)=NC2=O (some centres undefined)" measured_metric="cell viability" number=127
compound="CCC(C)(Oc1ccc(C2(c3ccc(OC(C)(CC)C(=O)O)cc3)CCCCC2)cc1)C(=O)O (centres undefined)" measured_metric="cell viability" number=89.4
compound=C[C@]12CCC(=O)C=C1CC[C@@H]1[C@@H]2CC[C@@]2(C)[C@H]1CC[C@]2(C)O measured_metric="cell viability" number=96.5
compound=COC1=C2OC(=O)\C=C/C2=CC3=C1OC=C3 measured_metric="cell viability" number=113

Working through the 4 compounds below one at a time, give cell viability for each.
1. Cc1cnc(NC(=O)Nc2cc(Br)c(C)cc2OC[C@@H]2CNCCO2)cn1
2. O=C(Nc1ccccc1-c1cn2c(CN3CCNCC3)csc2n1)c1cnc2ccccc2n1
3. C[C@@H]\1CC(=O)N\N=C1C2=CC=C(NN=C(C#N)C#N)C=C2
4. CN1CCN(c2ccc([N+](=O)[O-])c3no[n+]([O-])c23)CC1

## Output
1. 117
2. 85.3
3. 96.7
4. 103
